Test system: COLO 205 colon
Assay: NCI tumour cell line growth inhibition, 48 h
Quantity Name: log10 of TGI (log10 of the value in µM)
Log scale reminder: TGI in µM, then log10 taken.

• Brc1ccccc1C1SCc2nc3ccccc3n21 (stereo not given) = 1.51
• CC(=O)OC1COC(n2ccc3cc(Br)c([N+](=O)[O-])cc32)C(OC(C)=O)C1OC(C)=O (stereo not given) = 1.70
• COC(=O)C1=C(C)NC(C)=C(C(=O)OCCCN2CCC(c3ccccc3)(c3ccccc3)CC2)C1c1cccc([N+](=O)[O-])c1 (stereo not given) = 0.49
• CC(C)(C)OC(=O)N[C@H]1CC2(C=C(Cl)C(=O)C(Cl)=C2)OC1=O = 1.17

Lab note: next compound to report on.
### Prompt Item CN(C)c1nc(=Nc2ccc(N=c3nc(N(C)C)ss3)cc2)ss1 has what recorded log10 of TGI?
### Response 1.85
